# IC50 annotations
Molecular target: PD-1/PD-L1 interaction (Homo sapiens, UniProt Q9NZQ7)
Construct: Tag1 or Tag2 (undisclosed kit tag)
Sequence (Q9NZQ7 19-238 limits assumed): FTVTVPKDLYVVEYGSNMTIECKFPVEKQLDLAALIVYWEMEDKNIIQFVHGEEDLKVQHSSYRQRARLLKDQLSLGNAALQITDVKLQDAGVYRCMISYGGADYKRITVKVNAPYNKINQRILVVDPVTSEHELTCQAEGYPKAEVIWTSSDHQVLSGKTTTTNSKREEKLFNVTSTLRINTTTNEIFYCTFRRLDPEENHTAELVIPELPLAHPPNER
Assay: PD-1/PD-L1 Homogenous Time-Resolved Fluorescence (HTRF) binding assay
Settings: Biochemical PD1/PD-L1 inhibition

Some compounds with recorded IC50:
>  <Compound>
Cc1nc(OCc2cccc(-c3ccccc3)c2C)ncc1CN1CCCC[C@H]1C(=O)O

>  <Tested System>
PD-1/PD-L1 interaction (Homo sapiens, UniProt Q9NZQ7)

>  <IC50>
< 100 nM

$$$$
>  <Compound>
COc1nc(OCc2cccc(-c3ccccc3)c2C)nc(OC)c1CN1CCOCC1C(=O)O (centres unmarked)

>  <Tested System>
PD-1/PD-L1 interaction (Homo sapiens, UniProt Q9NZQ7)

>  <IC50>
< 100 nM

$$$$
>  <Compound>
CCOc1nc(OCc2cccc(-c3ccccc3)c2C)ncc1CN[C@H](C)C(=O)O

>  <Tested System>
PD-1/PD-L1 interaction (Homo sapiens, UniProt Q9NZQ7)

>  <IC50>
100 to 500 nM

$$$$
>  <Compound>
COc1nc(OCc2cccc(-c3ccccc3)c2C)nc(OC)c1CNC(CO)(CO)CO

>  <Tested System>
PD-1/PD-L1 interaction (Homo sapiens, UniProt Q9NZQ7)

>  <IC50>
< 100 nM

$$$$
>  <Compound>
CCOc1nc(OCc2cccc(-c3ccccc3)c2C)ncc1CN[C@@H](C)CC(=O)O

>  <Tested System>
PD-1/PD-L1 interaction (Homo sapiens, UniProt Q9NZQ7)

>  <IC50>
> 500 nM

$$$$
>  <Compound>
CCOc1nc(OCc2cccc(-c3ccccc3)c2C)ncc1CNCCC(=O)O

>  <Tested System>
PD-1/PD-L1 interaction (Homo sapiens, UniProt Q9NZQ7)

>  <IC50>
> 500 nM

$$$$

Query :: Provide one value: measured IC50 of `COc1nc(OCc2cccc(-c3ccccc3)c2C)nc(OC)c1CN1CC2(CC2)C[C@H]1C(=O)O`
Result :: < 100 nM

Query :: Look up IC50 of `CCOc1nc(OCc2cccc(-c3ccccc3)c2C)ncc1CN1CCCC[C@H]1C(=O)O` and report it.
Result :: 100 to 500 nM

Query :: Complete the entry with IC50 for `COc1nc(OCc2cccc(-c3ccc4c(c3)OCCO4)c2C)nc(OC)c1CN1CCCC[C@H]1C(=O)O`
Result :: < 100 nM

Query :: Quick one: give measured IC50 for CCOc1nc(OCc2cccc(-c3ccccc3)c2C)ncc1CNC(CC(N)=O)C(=O)O (centres unmarked)
Result :: 100 to 500 nM

Query :: For `CCOc1nc(OCc2cccc(-c3ccccc3)c2C)ncc1CNC(CO)(CO)CO` , write its IC50.
Result :: < 100 nM

Query :: Please report the measured IC50 for `COc1nc(OCc2cccc(-c3ccc(F)cc3)c2C)ncc1CN1CCCC[C@H]1C(=O)O`
Result :: > 500 nM

Query :: Fill in reported IC50 for this entry: `COc1nc(OCc2cccc(-c3ccccc3)c2C)ncc1CN1CCNC[C@H]1C(=O)O`
Result :: > 500 nM

Query :: Input Cc1c(COc2ncc(CN3CCCCC3C(=O)O)c(OCc3ccccc3)n2)cccc1-c1ccccc1 (centres unmarked) , output reported IC50.
Result :: > 500 nM

Query :: Provide measured IC50 value, entry: `CCOc1nc(OCc2cccc(-c3ccccc3)c2C)nc(OCC)c1CNC(CO)(CO)CO`
Result :: 100 to 500 nM

Query :: Using known records, supply IC50 for `COc1ccc(-c2cccc(COc3nc(OC)c(CN4C[C@H](O)C[C@H]4C(=O)O)c(OC)n3)c2C)cc1OC`
Result :: > 500 nM

Query :: Provide one value: measured IC50 of `COc1nc(OCc2cccc(-c3ccccc3)c2C)ncc1CNCCNC(C)=O`
Result :: 100 to 500 nM

Query :: Look up and state reported IC50 for `COc1nc(OCc2cccc(-c3ccccc3F)c2C)ncc1CNCCNC(C)=O`
Result :: > 500 nM

Query :: Return value of IC50 for input `CC(=O)NCCNCc1cnc(OCc2cccc(-c3ccccc3)c2C)nc1C` , no commentary.
Result :: 100 to 500 nM

Query :: Give a short answer stating reported IC50 for `COc1nc(OCc2cccc(-c3ccccc3)c2C)ncc1CN1CCCC[C@@H]1C(=O)O` .
Result :: 100 to 500 nM

Query :: Report IC50 for `COc1nc(OCc2cccc(-c3ccccc3)c2C)ncc1CN1CCCC[C@H]1C(=O)O`
Result :: < 100 nM

Query :: Look up and state reported IC50 for `Cc1c(COc2ncc(CN3C[C@H](O)C[C@H]3C(=O)O)c(OCc3cncc(C#N)c3)n2)cccc1-c1ccccc1`
Result :: > 500 nM

====

Assay: Intravenous and oral pharmacokinetics in mice
Assay type: in vivo, Balb/c mice
Settings: male, mouse, plasma; Balb C mice, oral dose of 10 mg/Kg
Outcome Measure: Cmax (ng/mL)
Your answer is read as ng/mL, so omit the unit and give the number.

Query :: Tell us which Cmax value is on record for `COc1nc(OCc2cccc(-c3ccccc3)c2C)nc(OC)c1CN1CCCC[C@H]1C(=O)O`
Result :: 4840

====

Assay: Intravenous and oral pharmacokinetics in mice
Type: in vivo, Balb/c mice
Conditions: male, Balb/c, mouse, plasma, iv, 2 mg/kg, Balb C mice, IV dose of 2 mg/Kg; read-out: Vd
Outcome Measure: Vd (L/kg)
Give the quantity in L/kg, number only.

Query :: Give Vd for COc1nc(OCc2cccc(-c3ccccc3)c2C)nc(OC)c1CN1CCCC[C@H]1C(=O)O [Compound 45]
Result :: 0.74

====

Assay: Intravenous and oral pharmacokinetics in mice
Format: in vivo, Balb/c mice
Conditions: male, mouse, plasma; Balb C mice, IV dose of 2 mg/Kg
Outcome Measure: Cmax (ng/mL)
Write the value in ng/mL as a bare number.

Query :: Retrieve Cmax measured for `COc1nc(OCc2cccc(-c3ccccc3)c2C)nc(OC)c1CN1CCCC[C@H]1C(=O)O` and print it.
Result :: 2110

====

Reported IC50 is given for each of the following compounds.
Molecular target: PD-1/PD-L1 interaction (Homo sapiens)
Construct: Tag1 or Tag2 (undisclosed kit tag)
Assay: PD-1/PD-L1 Homogenous Time-Resolved Fluorescence (HTRF) binding assay
Settings: Biochemical PD1/PD-L1 inhibition

Reference set (3 entries):
>  <Compound>
COc1nc(OCc2cccc(-c3ccc4c(c3)OCCO4)c2C)nc(OC)c1CN1C[C@H](O)C[C@H]1C(=O)O [Compound 11]

>  <Tested System>
PD-1/PD-L1 interaction (Homo sapiens)

>  <Result>
< 100 nM

$$$$
>  <Compound>
COc1nc(OCc2cccc(-c3ccccc3)c2C)nc(OC)c1CNCCNC(C)=O [Compound 3]

>  <Tested System>
PD-1/PD-L1 interaction (Homo sapiens)

>  <Result>
< 100 nM

$$$$
>  <Compound>
CCOc1nc(OCc2cccc(-c3ccccc3)c2C)ncc1CN1CCC1C(=O)O (stereo not shown) [Compound 31]

>  <Tested System>
PD-1/PD-L1 interaction (Homo sapiens)

>  <Result>
100 to 500 nM

$$$$

Next item in the queue.
Query :: Return IC50 (reported value) for this compound: COc1nc(OCc2cccc(-c3ccccc3)c2C)ncc1CN1CCCC2(CCNC2=O)C1 (stereo not shown) [Compound 52]
Result :: > 500 nM

====

Experiment: Intravenous and oral pharmacokinetics in mice
Format: in vivo, Balb/c mice
Settings: male, mouse, plasma; Balb C mice, IV dose of 2 mg/Kg
Outcome Measure: clearance (mL/min/kg)
Answer in mL/min/kg, number only, no unit symbol.

Query :: Output measured clearance for this item: `COc1nc(OCc2cccc(-c3ccccc3)c2C)nc(OC)c1CN1CCCC[C@H]1C(=O)O`
Result :: 6.77

====

Target: PD-1/PD-L1 interaction (Homo sapiens, UniProt Q9NZQ7)
Construct: Tag1 or Tag2 (undisclosed kit tag)
Experiment: PD-1/PD-L1 Homogenous Time-Resolved Fluorescence (HTRF) binding assay
Settings: Biochemical PD1/PD-L1 inhibition
pIC50: −log10 of the molar value.
Measured pIC50, listed per entry.

>  <Compound>
COc1nc(OCc2cccc(-c3ccccc3)c2C)nc(OC)c1CN1C[C@H](O)C[C@H]1C(=O)O [Compound 34]

>  <pIC50>
> 7.00

$$$$
>  <Compound>
COc1nc(OCc2cccc(-c3ccccc3)c2C)nc(OC)c1CN1CCCC[C@H]1C(=O)O [Compound 45]

>  <pIC50>
> 7.00

$$$$
>  <Compound>
CCOc1nc(OCc2cccc(-c3ccccc3)c2C)nc(OCC)c1CNCCNC(C)=O [Compound 6]

>  <pIC50>
6.30 to 7.00

$$$$
>  <Compound>
COc1nc(OCc2cccc(-c3ccccc3)c2C)nc(OC)c1CN1CCC[C@@H]2C[C@@]21C(=O)O (single isomer, unassigned) [Compound 5]

>  <pIC50>
6.30 to 7.00

$$$$
>  <Compound>
Cc1c(COc2ncc(CN3CCCC[C@H]3C(=O)O)c(OCC(F)(F)F)n2)cccc1-c1ccccc1 [Compound 9]

>  <pIC50>
< 6.30

$$$$
>  <Compound>
COc1nc(OCc2cccc(-c3ccccc3F)c2C)ncc1CN1CCCC[C@H]1C(=O)O [Compound 19]

>  <pIC50>
6.30 to 7.00

$$$$

Query :: Tell me pIC50 reported for COc1nc(OCc2cccc(-c3ccccc3)c2C)nc(OC)c1CN1CCOC[C@H]1C(=O)O [Compound 43]
Result :: > 7.00
